experimental_protocol: HIF pathway transcriptional activators, primary screen, cell-based, U2OS HRE-luciferase, luminescence (AID 1910)
study_conditions: U2OS HRE-luciferase reporter, active compounds read high, screened at 7.5 µM (by protocol), normalized: DMSO 0%, desferrioxamine 100%
Hit rate of the full screen: of about 300,000 compounds, about 950 (0.32%) were called active. The entries come from a sample that favours actives as a whole.

{"compound": "CCOc1ccc(NC(=O)c2ccc(NC(=O)CN3C(=O)C(=O)N(CC(C)C)C3=O)cc2)cc1", "activation, %": -0.207}
{"compound": "Cc1cc(C)nc(-n2ncc3c2CC(c2ccc(C(C)C)cc2)CC3=O)n1 (stereo not drawn)", "activation, %": 0.0559}
{"compound": "Cn1ccnc1-c1nnn(-c2ccc(F)cc2)n1", "activation, %": 2.61}

###

experimental_protocol: HIF pathway transcriptional activators, primary screen, cell-based, U2OS HRE-luciferase, luminescence (AID 1910)
study_conditions: U2OS HRE-luciferase reporter, screened at 7.5 µM (by protocol), normalized: DMSO 0%, desferrioxamine 100%
Out of some 300,000 compounds screened, about 950 (0.32%) were called active.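 Rule for the calls: active = mean activation of at least 10% of the iron chelator positive control signal, with at least half of replicates also reaching 10%; inconclusive = mean and replicate majority disagree about reaching 10%; inactive = mean and most replicates under 10%.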 The sample holds actives, similar compounds and a random draw of the others, so the mix is not that of the screen.
Possible outcomes: active, inactive

{"compound": "CCN(CC)c1ccc(/C=N/NC(=O)CNC(=O)c2cccnc2)cc1", "label_class": "inactive"}
{"compound": "Cc1c(C(=O)Nc2ccccn2)oc2ccc(Br)cc12", "label_class": "inactive"}
{"compound": "O=C(NCc1ccc2c(c1)OCO2)c1c(O)nc2sccn2c1=O", "label_class": "inactive"}
{"compound": "CCCCn1c(N)c(N(CC(C)C)C(=O)C2CSC3(C)CCC(=O)N23)c(=O)[nH]c1=O (configuration not stated)", "label_class": "inactive"}
{"compound": "CCCCn1c(N)c(N(CCOC)C(=O)COc2c(C)cccc2C)c(=O)[nH]c1=O", "label_class": "inactive"}
{"compound": "CCOc1ccc(C(C)=O)cc1COC(=O)CNC(=O)c1cccs1", "label_class": "inactive"}
{"compound": "COc1cccc(/C=N/NC(=O)c2[nH]nc3c2CCc2ccccc2-3)c1O", "label_class": "active"}

###

experimental_protocol: HIF pathway transcriptional activators, primary screen, cell-based, U2OS HRE-luciferase, luminescence (AID 1910)
study_conditions: U2OS HRE-luciferase reporter, active compounds read high, screened at 7.5 µM (by protocol), normalized: DMSO 0%, desferrioxamine 100%
The whole screen tested about 300,000 compounds, of which about 950 (0.32%) were called active. The list comes from a sample in which actives are over-represented; it also holds close analogues and randomly drawn compounds.
endpoint_label: activation (%)

{"structure_notation": "CNC(=O)C(=O)N/N=C/c1ccccn1", "endpoint_label": "activation", "readout_unit": "%", "val": -0.138}
{"structure_notation": "Cc1nnc(N/N=C/c2ccccn2)[nH]c1=O", "endpoint_label": "activation", "readout_unit": "%", "val": 117}
{"structure_notation": "CCN(CC(=O)Nc1c(F)cccc1F)C(=O)c1ccc(Sc2nncn2C)c([N+](=O)[O-])c1", "endpoint_label": "activation", "readout_unit": "%", "val": 0.52}
